All values here come from the supplement of paper PMC10567573.

B1: PLK2 (parent)
chain: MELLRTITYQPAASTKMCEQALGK

variants of: B1; assay: protein stability index of a GFP-peptide fusion (GPS, HEK-293T) (PSI 1-6); higher = more stable; conditions: c terminus: a fixed tail appended;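 note: lentivirally expressed fusions sorted by FACS into six bins by GFP to DsRed ratio, PSI derived from sequencing read proportions per bin multiplied by bin number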
Think of 3 as a floor: if protein stability index stands on it or above, it is true (1); beneath it, false (0).

Exercise: Has "Q10Y" a recorded protein stability index greater than or equal to 3?
Solution: true (1)

Exercise: Given "K24M" , state whether its protein stability index is at least 3.
Solution: true (1)

Exercise: Is the recorded value of protein stability index equal to or greater than 3 for this variant? "M17Y"
Solution: false (0)

Exercise: Determine whether measured protein stability index meets or exceeds 3 for "G23P"
Solution: false (0)

Exercise: Please tell me: is the variant "S14K" at or over 3 in terms of protein stability index?
Solution: false (0)

Exercise: Does the variant "R5Q" have recorded protein stability index that is 3 or more?
Solution: true (1)

Exercise: Is protein stability index for "M17S" at or above 3?
Solution: false (0)

Exercise: State whether the measured protein stability index reaches 3, counting equality as reaching it, for "L3P"
Solution: true (1)

Exercise: Is the recorded value of protein stability index equal to or greater than 3 for this variant? "R5F"
Solution: false (0)

Exercise: State whether the measured protein stability index reaches 3, counting equality as reaching it, for "A12C"
Solution: false (0)

Exercise: Please indicate if the recorded protein stability index for "K16H" meets or exceeds 3.
Solution: false (0)
